Parameter: DPPH Free Radical Scavenging Ability. Scope: all listed entries.
Assay: DPPH scavenging assay
Settings: Comp. Conc. 1000 µg/mL; mean ± S.E.M, n = 3

Req: Give the measured DPPH Free Radical Scavenging Ability of O=C([O-])Cc1ccccc1Cl.O=C([O-])Cc1ccccc1Cl.O=C([O-])Cc1ccccc1Cl.O=C([O-])Cc1ccccc1Cl.Oc1ccncc1.Oc1ccncc1.[Cu+2].[Cu+2] [Complex 3, Cun(2-ClC6H4COO)4(4-OHPy)2] .
Resp: 79.00 ± 0.16 %

Req: And the next one, N#Cc1ccncc1.N#Cc1ccncc1.O=C([O-])Cc1ccccc1Cl.O=C([O-])Cc1ccccc1Cl.O=C([O-])Cc1ccccc1Cl.O=C([O-])Cc1ccccc1Cl.[Cu+2].[Cu+2] [Complex 2, Cu2(2-ClC6H4COO)4(4-CNPy)2] ?
Resp: 95.20 ± 0.15 %

Req: Same question for N#Cc1cccnc1.N#Cc1cccnc1.O=C([O-])Cc1cccc(Cl)c1.O=C([O-])Cc1cccc(Cl)c1.O=C([O-])Cc1cccc(Cl)c1.O=C([O-])Cc1cccc(Cl)c1.[Cu+2].[Cu+2] [Complex 4, Cu2(3-ClC6H4COO)4(3-CNPy)2] please.
Resp: 83.17 ± 0.72 %

Req: Next: N#Cc1ccncc1.N#Cc1ccncc1.O=C([O-])Cc1cccc(Cl)c1.O=C([O-])Cc1cccc(Cl)c1.O=C([O-])Cc1cccc(Cl)c1.O=C([O-])Cc1cccc(Cl)c1.[Cu+2].[Cu+2] [Complex 5, Cu2(3-ClC6H4COO)4(4-CNPy)2]
Resp: 85.72 ± 0.79 %

Req: For N#Cc1cccnc1.N#Cc1cccnc1.O=C([O-])Cc1ccccc1Cl.O=C([O-])Cc1ccccc1Cl.O=C([O-])Cc1ccccc1Cl.O=C([O-])Cc1ccccc1Cl.[Cu+2].[Cu+2] [Complex 1, Cu2(2-ClC6H4COO)4(3-CNPy)2] then?
Resp: 78.39 ± 0.49 %

Req: // repeat for O=C([O-])Cc1cccc(Cl)c1.O=C([O-])Cc1cccc(Cl)c1.O=C([O-])Cc1cccc(Cl)c1.O=C([O-])Cc1cccc(Cl)c1.Oc1ccncc1.Oc1ccncc1.[Cu+2].[Cu+2] [Complex 6, Cu2(3-ClC6H4COO)4(4-OHPy)2] and report
Resp: 80.85 ± 0.18 %
